target: NADPH oxidase 5 (Homo sapiens) (UniProt Q96PH1); test: NOX5-dependent H2O2 signal modulators, primary screen, NOX inhibitor project, cell-based, HEK293-NOX5, Amplex Red fluorescence (AID 1161); conditions: HEK293-NOX5, ionomycin, 45 min, higher = more signal
Sequence (Q96PH1 whole entry, looked up): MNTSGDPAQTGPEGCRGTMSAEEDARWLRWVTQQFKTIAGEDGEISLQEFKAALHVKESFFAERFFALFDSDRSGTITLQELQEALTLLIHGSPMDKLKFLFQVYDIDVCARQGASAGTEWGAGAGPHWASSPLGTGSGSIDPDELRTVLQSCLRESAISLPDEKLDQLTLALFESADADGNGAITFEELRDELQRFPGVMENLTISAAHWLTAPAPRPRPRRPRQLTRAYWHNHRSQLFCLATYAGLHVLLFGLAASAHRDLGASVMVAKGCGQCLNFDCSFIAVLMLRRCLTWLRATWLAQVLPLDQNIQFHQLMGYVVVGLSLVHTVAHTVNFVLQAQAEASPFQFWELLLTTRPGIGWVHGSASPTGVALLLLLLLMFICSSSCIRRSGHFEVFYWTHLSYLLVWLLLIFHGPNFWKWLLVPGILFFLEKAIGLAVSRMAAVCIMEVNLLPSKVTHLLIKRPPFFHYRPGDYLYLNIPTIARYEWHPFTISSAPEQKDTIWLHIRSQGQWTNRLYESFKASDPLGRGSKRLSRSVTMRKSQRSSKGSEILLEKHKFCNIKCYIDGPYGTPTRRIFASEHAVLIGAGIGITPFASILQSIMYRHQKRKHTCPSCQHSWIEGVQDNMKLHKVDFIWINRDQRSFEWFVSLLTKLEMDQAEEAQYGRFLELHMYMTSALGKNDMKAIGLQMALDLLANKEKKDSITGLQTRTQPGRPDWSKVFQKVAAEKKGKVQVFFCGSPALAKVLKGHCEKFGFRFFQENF
Give measured z-score for each item. Keep answers brief.
# answer = number (no unit)

Incoming: Recall the reported z-score of COc1ccc(O[C@H]2C=C[C@@H](c3ccccc3)O[C@@H]2COC(=O)CCC(C)=NO[C@@H](C)c2cc(-c3c(C)cc(C)cc3C)no2)cc1 on NADPH oxidase 5 (Homo sapiens) (UniProt Q96PH1) and write it down.
Outgoing: -1.09

Incoming: Fill: z-score (NADPH oxidase 5 (Homo sapiens) (UniProt Q96PH1)) for this molecule CCCCCCc1nc(CCCc2cc3c(c(CCCCCC)n2)[Si](C(C)C)(C(C)C)O[C@H]3c2ccccc2)cc2c1[Si](C(C)C)(C(C)C)O[C@H]2c1ccccc1
Outgoing: -1.07

Incoming: Give the observed z-score of CCOC(=O)[C@H](Cc1ccccc1)NC(=O)CCC1CC(OC(=O)NCc2ccc3c(c2)OCO3)CC2(CCCC(COC(=O)NCC(c3ccccc3)c3ccccc3)O2)O1 (some centres not stated) for NADPH oxidase 5 (Homo sapiens) (UniProt Q96PH1).
Outgoing: 0.491

Incoming: Supply z-score measured with NADPH oxidase 5 (Homo sapiens) (UniProt Q96PH1) for O=C1[C@H]2[C@H]3[C@H](O)[C@H](O)CC(=NOCc4ccccc4)[C@H]3CC[C@H]2C(=O)N1c1cccc(Oc2ccccc2)c1 .
Outgoing: -3.91

Incoming: Answer briefly: z-score recorded on NADPH oxidase 5 (Homo sapiens) (UniProt Q96PH1) for C[C@H]1CC[C@@H](C(=O)O)N[C@@H]1c1ccc(C#CCN(C)C)cc1
Outgoing: 0.0715

Incoming: Provide the reported z-score (system: NADPH oxidase 5 (Homo sapiens) (UniProt Q96PH1)) for CCN1C(=O)[C@H]2[C@H]3[C@H](O)[C@H](O)CC(=NO[C@@H]4O[C@H](CO)[C@@H](O)[C@H](O)[C@H]4O)[C@@H]3CC[C@H]2C1=O
Outgoing: -0.0261

Incoming: Please report z-score with NADPH oxidase 5 (Homo sapiens) (UniProt Q96PH1) for item CN1C(=O)[C@@]2(CCC(=O)OC(C)(C)C)N=C(c3ccc(OCCCO)cc3)O[C@H]2c2ccccc21 .
Outgoing: -1.43

###

target: Dickkopf-related protein 1 (Homo sapiens); assay: DKK1 binders on small-molecule microarrays, primary screen, biochemical, small-molecule microarray, 635 nm fluorescence scan (AID 1106); details: DKK1 binding, higher = more signal;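 note: score merges emission near 667 nm with signal to noise over three replicate slides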
Consider the following compounds; for each one, report its composite z-score.

Incoming: Consider the compound O=C(NN=C1C[C@@H](O)[C@@H](O)[C@@H]2[C@@H]3C(=O)N(c4ccc(F)cc4F)C(=O)[C@@H]3CC[C@@H]12)OCc1ccccc1 and give its recorded composite z-score.
Outgoing: 0.092

Incoming: Identify measured composite z-score corresponding to c1ccc(C2NCCc3c2[nH]c2ccccc32)cc1 (stereo unspecified)
Outgoing: 0.0559

Incoming: Consider the compound C#CCCCON=C1C[C@@H](O)[C@@H](O)[C@@H]2[C@@H]3C(=O)N(Cc4ccccc4)C(=O)[C@@H]3CC[C@H]12 and give its recorded composite z-score.
Outgoing: 0.525

Incoming: State, in one line, measured composite z-score of CC(C)(C)OC(=O)CC[C@]1(C(=O)NCc2ccccc2)N=C(c2ccc(OCCCO)cc2)O[C@H]1c1ccccc1
Outgoing: -0.402

Incoming: Given [N-]=[N+]=Nc1ccccc1C[C@@]1(C(N)=O)N=C(c2ccc(OCCCO)cc2)O[C@@H]1c1ccccc1 , respond with its composite z-score.
Outgoing: -0.82

Incoming: Report measured composite z-score; entry is COc1ccc([Si](C)(C)[C@H]2[C@H](CC(=O)N3CCC[C@H]3CO)O[C@@]3(C(=O)N(Cc4cccc(N5C(=O)COc6ccccc65)c4)c4ccccc43)[C@@H]2C)cc1
Outgoing: 0.519

Incoming: Name the recorded composite z-score of the item C=C(CCCC)C(=O)CC[C@@H](OC(C)=O)c1cccc(OCCO)c1 in your answer.
Outgoing: 0.329

Incoming: Output composite z-score of C[C@@H]1C=CCC(=O)OC[C@H](C)C(=O)N[C@@H](C)C(=O)OC1
Outgoing: 0.814

Incoming: For CC(C)c1ccc(NN2C(C(O)c3ccc4c(c3)OCO4)C=CC3C(=O)N(c4ccccc4)C(=O)C32)cc1 (stereo unspecified) , write its composite z-score.
Outgoing: 0.263

Incoming: Give reported composite z-score value for CCN1C(=O)[C@H]2[C@H]3[C@H](O)[C@H](O)CC(=NO[C@@H]4O[C@H](CO)[C@@H](O)[C@H](O)[C@H]4O)[C@@H]3CC[C@H]2C1=O
Outgoing: -0.0655

Incoming: Note composite z-score for the compound shown: COC(=O)[C@H]1COC(c2ccc(OCCCO)cc2)=N1
Outgoing: -0.59

Incoming: Return composite z-score (reported value) for this compound: CCOc1ccc(N2C(=O)/C(=C/C=C/c3ccccc3OC)S(=O)(=O)C2c2cccc([N+](=O)[O-])c2)cc1 (stereo unspecified)
Outgoing: 0.218

Incoming: Write down composite z-score measured for item CO[C@@H]1COC(=O)CC=C[C@@H](C)[C@H](OC)COC(=O)[C@H](COCc2ccccc2)NC(=O)CC=C[C@H]1C
Outgoing: 0.444

Incoming: Return composite z-score (reported value) for this compound: CO[C@H]1O[C@H](CO)[C@@H](OC(=O)Nc2ccc(C#N)cc2)[C@H](OC(=O)c2cc3ccccc3[nH]2)[C@H]1OC(=O)c1cc2ccccc2[nH]1
Outgoing: 0.295

Incoming: Given CC(CCN1CCc2nc(-c3ccccc3)c(-c3ccccc3)cc2C1)=NO[C@H](C)c1cn([C@@H]2COC[C@H]2O)nn1 , respond with its composite z-score.
Outgoing: 0.0546

Incoming: Determine from records and report composite z-score for CC(CCC(=O)OC[C@H]1O[C@H](C#Cc2ccccc2)C=C[C@@H]1Oc1ccc(C)cc1)=NOC[C@@H](O)[C@H]1O[C@@H]2OC(C)(C)O[C@@H]2[C@H]1O
Outgoing: -0.335
